For each of the compounds below, state its MIC.
Test system: Streptococcus pyogenes
Assay: Antibacterial activity against efflux mediated macrolide resistant Streptococcus pyogenes by agar microdilution method
Assay type: functional
Kindly provide the numeric value in µg/mL only, without the unit symbol.

// query MIC value for entry CCC1OC(=O)[C@H](C)[C@@H](O[C@H]2C[C@@](C)(OC)[C@@H](OC(=O)CNCCCNCCNc3cc4c(cc3F)c(=O)c(C(=O)O)cn4C3CC3)[C@H](C)O2)C(C)[C@@H](O[C@@H]2O[C@H](C)C[C@H](N(C)C)[C@H]2O)[C@](C)(O)C[C@@H](C)CN(C)[C@H](C)[C@@H](O)[C@]1(C)O (single isomer, unassigned)
0.5

Value lookup for MIC; key = CC[C@H]1OC(=O)[C@@H](C)[C@H](O[C@@H]2C[C@](C)(OC)[C@H](OC(=O)CNC(=O)CCNCCOCCOCCNc3cc4c(=O)c(C(=O)O)cn(C5CC5)c4cc3Cl)[C@@H](C)O2)[C@H](C)[C@H](O[C@H]2O[C@@H](C)C[C@@H](N(C)C)[C@@H]2O)[C@@](C)(O)C[C@H](C)CN(C)[C@@H](C)[C@H](O)[C@@]1(C)O (stereo in doubt)
2

Tell me the measured MIC of CCC1OC(=O)[C@H](C)[C@@H](O[C@H]2C[C@@](C)(OC)[C@@H](OC(=O)CNC(=O)CSc3cnc4ccccc4n3)[C@H](C)O2)C(C)[C@@H](O[C@@H]2O[C@H](C)C[C@H](N(C)C)[C@H]2O)[C@](C)(O)C[C@@H](C)CN(C)[C@H](C)[C@@H](O)[C@]1(C)O (single isomer, unassigned) , please.
0.5
